The measurements presented in this section are drawn from patent US20210355194A1.

Exercise: for every item that follows, state its recorded ELISA fold over background.
TARGET DESC: S1 Fc fusion protein (SARS-CoV-2, UniProt P0DTC2 14-685)
METHOD DESCRIPTION: phage ELISA
Numeric answer only, unit fold assumed.

So what does the record say about ELISA fold over background for SARS-CoV-2 variant 1-30 (antibody, V domains shown) VH: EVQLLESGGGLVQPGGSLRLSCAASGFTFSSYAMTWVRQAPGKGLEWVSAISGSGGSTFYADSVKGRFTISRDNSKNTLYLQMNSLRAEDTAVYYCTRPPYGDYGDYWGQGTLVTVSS VL: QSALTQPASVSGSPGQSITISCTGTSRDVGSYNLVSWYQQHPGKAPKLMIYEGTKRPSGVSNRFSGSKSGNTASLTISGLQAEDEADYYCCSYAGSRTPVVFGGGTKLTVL ?
5.6

So what does the record say about ELISA fold over background for SARS-CoV-2 variant 1-31 (antibody, V domains shown) VH: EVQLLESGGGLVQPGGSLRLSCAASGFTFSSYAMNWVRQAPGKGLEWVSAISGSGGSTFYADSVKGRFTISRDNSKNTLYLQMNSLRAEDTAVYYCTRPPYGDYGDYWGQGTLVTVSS VL: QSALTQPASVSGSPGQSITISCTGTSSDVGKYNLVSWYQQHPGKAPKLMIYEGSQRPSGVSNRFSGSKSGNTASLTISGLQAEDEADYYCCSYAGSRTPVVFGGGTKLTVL ?
15.7

So what does the record say about ELISA fold over background for SARS-CoV-2 variant 1-25 (antibody, V domains shown) VH: EVQLLESGGGLVQPGGSLRLSCAASGFTFSDYAMNWVRQAPGKGLEWVSIISGSGGSTYYADSVKGRFTISRDNSKNTLYLQMNSLRAEDTAVYYCAREGYRDYLWYFDLWGQGTLVTVSS VL: QSALTQPASVSGSPGQSITISCSGTSSDVGSYNLVSWYQQHPGKAPKLMIYEASKRPSGVSNRFSGSKSGNTASLTISGLQAEDEADYYCCSYAGSSTVFGGGTKLTVL ?
1
